Origin of the recorded values: patent US20240116985A1

# TARGET OR SYSTEM: full-length beta-Catenin (Uniprot ID P35222) (Homo sapiens, UniProt P35222)
# Construct: 10 nM full-length beta-Catenin (Uniprot ID P35222)
# Sequence (P35222 1-781): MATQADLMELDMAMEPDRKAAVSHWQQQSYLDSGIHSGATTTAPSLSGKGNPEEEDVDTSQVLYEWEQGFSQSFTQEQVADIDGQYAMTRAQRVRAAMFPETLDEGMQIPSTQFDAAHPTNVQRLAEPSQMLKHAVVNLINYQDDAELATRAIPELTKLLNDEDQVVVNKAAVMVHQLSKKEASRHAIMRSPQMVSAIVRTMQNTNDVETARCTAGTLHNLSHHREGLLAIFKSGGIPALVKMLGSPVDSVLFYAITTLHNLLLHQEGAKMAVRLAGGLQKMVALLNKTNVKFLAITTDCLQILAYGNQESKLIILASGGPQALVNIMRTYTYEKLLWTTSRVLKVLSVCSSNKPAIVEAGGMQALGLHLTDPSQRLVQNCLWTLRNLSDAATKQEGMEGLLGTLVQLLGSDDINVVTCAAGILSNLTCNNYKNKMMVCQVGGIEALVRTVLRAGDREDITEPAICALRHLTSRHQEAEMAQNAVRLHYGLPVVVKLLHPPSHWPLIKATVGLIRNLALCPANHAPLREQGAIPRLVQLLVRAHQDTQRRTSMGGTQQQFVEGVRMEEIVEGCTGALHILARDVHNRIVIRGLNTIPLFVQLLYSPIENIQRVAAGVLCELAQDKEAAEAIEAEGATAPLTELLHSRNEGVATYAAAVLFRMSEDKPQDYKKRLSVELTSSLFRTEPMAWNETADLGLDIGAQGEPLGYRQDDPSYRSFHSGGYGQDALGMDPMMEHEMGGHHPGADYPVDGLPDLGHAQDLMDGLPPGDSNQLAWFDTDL
# ASSAY PROCEDURE: Fluorescence polarization IC50 (beta-catenin / 5FAM-TCF4 10-53 competition)
# Type: binding
# EXPERIMENTAL PARAMETERS: read-out: beta-Catenin FP IC50
Listed here: items and their measured IC50.
Numbers only; they are read as µM.

* CC(=O)N1CCC[C@]12CC=CCCCC1(CCCC=CCCCOC(=O)N3CC[C@@](C(=O)N[C@@H](Cc4ccccc4Cl)C(=O)N[C@@H](Cc4csc5ccccc45)C(=O)N[C@@H](CCO)C(N)=O)(C3)NC(=O)[C@H](CCO)NC(=O)[C@H](Cc3ccccc3)NC(=O)[C@H](C)NC(=O)[C@H](C)NC(=O)[C@H](CN(CC(=O)O)CC(F)(F)F)NC(=O)[C@H](CC(=O)O)NC1=O)NC(=O)[C@H](CC(C)(C)C)NC(=O)[C@H](CC(=O)O)NC2=O (some centres unmarked) | 0.018

Ask | Supply measured IC50 of CC(=O)N1CCC[C@]12CC=CCCCC1(CCCC=CCCCOC(=O)N3CC[C@@](C(=O)N[C@@H](Cc4ccccc4Cl)C(=O)N[C@@H](Cc4csc5ccccc45)C(=O)N[C@@H](CCC(N)=O)C(N)=O)(C3)NC(=O)[C@H](CC(N)=O)NC(=O)[C@H](Cc3ccccc3)NC(=O)[C@H](C)NC(=O)[C@H](Cc3ccccc3)NC(=O)[C@H](CN(CC(=O)O)CC(F)(F)F)NC(=O)[C@H](CC(=O)O)NC1=O)NC(=O)[C@H](CC(C)(C)C)NC(=O)[C@H](CC(=O)O)NC2=O (some centres unmarked) in your reply.
Reply | 0.009

Ask | Return IC50 for the following compound: CC(=O)N1CCC[C@]12CC=CCCCC1(CCCC=CCCCOC(=O)N3CC[C@@](C(=O)N[C@@H](Cc4ccsc4)C(=O)N[C@@H](Cc4csc5ccccc45)C(=O)N[C@@H](CCC(N)=O)C(N)=O)(C3)NC(=O)[C@H](CC(N)=O)NC(=O)[C@H](Cc3ccccc3)NC(=O)[C@H](C)NC(=O)[C@H](C)NC(=O)[C@H](CC(=O)O)NC(=O)[C@H](CC(=O)O)NC1=O)NC(=O)[C@H](CCC(C)C)NC(=O)[C@H](CC(=O)O)NC2=O (some centres unmarked)
Reply | 0.005

Ask | Input CC(=O)N1CCC[C@]12CC=CCCCC1(CCCC=CCCCCCC[C@@](C)(C(=O)N[C@@H](Cc3ccccc3Cl)C(=O)N[C@@H](Cc3csc4ccccc34)C(=O)N[C@@H](CCC(N)=O)C(N)=O)NC(=O)[C@H](CC(C)C)NC(=O)[C@H](Cc3ccccc3)NC(=O)[C@H](C)NC(=O)[C@H](C)NC(=O)[C@H](CCC(=O)O)NC(=O)[C@H](CC(=O)O)NC1=O)NC(=O)[C@H](CC(C)(C)C)NC(=O)[C@H](CC(=O)O)NC2=O (some centres unmarked) , output reported IC50.
Reply | 0.017

Ask | Give reported IC50 value for CC(=O)N1CCC[C@]12CC=CCCCC1(CCCC=CCCCOC(=O)N3CC[C@@](C(=O)N[C@@H](Cc4ccccc4Cl)C(=O)N[C@@H](Cc4csc5ccccc45)C(=O)N[C@@H](CO)C(N)=O)(C3)NC(=O)[C@H](CC(C)C)NC(=O)[C@H](Cc3ccccc3)NC(=O)[C@H](C)NC(=O)[C@H](C)NC(=O)[C@H](CC(=O)O)NC(=O)[C@H](CC(=O)O)NC1=O)NC(=O)[C@H](Cc1ccc3ccccc3c1)NC(=O)[C@H](CC(=O)O)NC2=O (some centres unmarked)
Reply | 0.055
